biological target: glycosylated human PAI-1 (active form) (human, UniProt P05121 24-402, glycosylated); assay: cell-based or functional assay
Sequence (P05121 24-402 limits assumed): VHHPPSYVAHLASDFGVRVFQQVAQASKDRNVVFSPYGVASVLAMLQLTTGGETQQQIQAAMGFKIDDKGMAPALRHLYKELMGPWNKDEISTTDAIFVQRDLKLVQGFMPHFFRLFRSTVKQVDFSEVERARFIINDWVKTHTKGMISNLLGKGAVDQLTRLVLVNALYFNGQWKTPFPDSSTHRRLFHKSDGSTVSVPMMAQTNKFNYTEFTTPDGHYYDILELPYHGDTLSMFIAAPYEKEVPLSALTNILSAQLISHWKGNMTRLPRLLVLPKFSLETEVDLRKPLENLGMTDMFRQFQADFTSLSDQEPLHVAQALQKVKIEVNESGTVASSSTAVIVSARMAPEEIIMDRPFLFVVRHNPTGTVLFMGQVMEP
measure name: Plasmin Generation
Remember to put the unit after the number in your answer.

Supply reported Plasmin Generation belonging to this binder: E21 (antibody, mouse IgG2b, V domains shown, mouse IgG2b; also called mE21; E21 (IgG2b)) VH: EVQLQQSGAELVRSGASVKLSCTASGFNIKDYYMHWVKQRPEQGLEWIGWIDPENGDTEYDPKFQAKATMTADTSSNTAYLQLSSLTSEDTAVYYCMYGNYPYYFDYWGQGTTLTVSS VL: DIQMTQTTSSLSASLGDRVTISCRASQDISNYLNWYQQKPDGTVKLLIYYTSRLHSGVPSRFSGSGSGTDYSLTISNLEQEDIATYFCQQGNTLPWTFGGGTKLEIK
216 nM
